# Test system: human acute promyelocytic leukemia cells (HL-60)
# test_protocol: Differentiation of human acute promyelocytic leukemia cells (HL-60), morphological changes of nuclei and NBT reduction
# Type: cell-based
# protocol_conditions: Homo sapiens, HL-60, 96 h, read-out: ED50 (effective doses which cause differentiation of 50% of the cultured cells)
observation_type: EC50 (nM)

structure_string=C[Si](C)(C)c1cccc(NC(=O)c2ccc(C(=O)O)cc2)c1 measured_on="human acute promyelocytic leukemia cells (HL-60)" measurement_units=nM reported=80
structure_string=CC1=C(/C=C/C(C)=C/C=C/C(C)=C/C(=O)O)C(C)(C)CCC1 measured_on="human acute promyelocytic leukemia cells (HL-60)" measurement_units=nM reported=2
structure_string=C[Si](C)(C)c1cccc(/C=C/c2ccc(C(=O)O)cc2)c1 measured_on="human acute promyelocytic leukemia cells (HL-60)" measurement_units=nM reported=60
structure_string=C[Si](C)(C)c1cc(C(=O)/C=C/c2ccc(C(=O)O)cc2)cc([Si](C)(C)C)c1 measured_on="human acute promyelocytic leukemia cells (HL-60)" measurement_units=nM reported=0.2

Reference for the values: patent USRE36477E
